# ASSAYED_SYSTEM: hGIPR (Homo sapiens)
# Sequence (P48546 22-466): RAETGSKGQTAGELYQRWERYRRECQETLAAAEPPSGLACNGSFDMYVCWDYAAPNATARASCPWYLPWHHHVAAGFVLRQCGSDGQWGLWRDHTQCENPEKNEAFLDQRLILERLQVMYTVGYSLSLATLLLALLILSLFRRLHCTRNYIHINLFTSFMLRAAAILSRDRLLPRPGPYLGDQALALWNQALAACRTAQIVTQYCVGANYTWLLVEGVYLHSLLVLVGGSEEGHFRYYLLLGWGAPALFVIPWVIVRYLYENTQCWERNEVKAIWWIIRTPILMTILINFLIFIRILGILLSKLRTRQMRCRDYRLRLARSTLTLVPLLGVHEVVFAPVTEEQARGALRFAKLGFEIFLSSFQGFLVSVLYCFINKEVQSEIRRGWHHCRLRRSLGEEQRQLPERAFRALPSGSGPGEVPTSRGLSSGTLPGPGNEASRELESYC
# PROTOCOL_SUMMARY: Functional cAMP activation in the presence of 0.1% casein (no HSA);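 also: intracellular cAMP rise after 30 min at 37 °C read by HTRF against a standard curve, scaled between buffer alone (0%) and top control ligand concentration (100%), four-parameter fit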
# Format: cell-based
# CONDITION: in the presence of 0.1% casein (no HSA); geometric mean; read-out: Relative cAMP EC50, hGIPR
Starred links: 1 amine or outer side, 2 acyl side, 3 side chain; linkers in the order of their positions; H or OH if unused. Non-standard residues stand in square brackets, D forms with d. Groups on a side chain read outwards from the residue. No end group written: not given here. *: point of attachment. C20 diacid = O=C(O)CCCCCCCCCCCCCCCCCCC(=O)*; C18 diacid = O=C(O)CCCCCCCCCCCCCCCCC(=O)*; Phe(4-CN) = N#Cc1ccc(C[C@H](N)C(=O)O)cc1; γGlu = O=C(O)[C@H](CCC(=O)[*:2])N[*:1]; αMe4Pal = C[C@](N)(Cc1ccncc1)C(=O)O; αMeY = C[C@](N)(Cc1ccc(O)cc1)C(=O)O; αMeF = C[C@](N)(Cc1ccccc1)C(=O)O; 4Pal = N[C@@H](Cc1ccncc1)C(=O)O; αMeL = CC(C)C[C@](C)(N)C(=O)O; αMeS = C[C@](N)(CO)C(=O)O; Orn = NCCC[C@H](N)C(=O)O; Dap = NC[C@H](N)C(=O)O; AEEA = NCCOCCOCC(=O)O; Aib = CC(C)(N)C(=O)O
MEASURE_NAME: EC50 (nM)
Your answer is read as nM, so omit the unit and give the number.

// EC50 lookup, key: H-Y[Aib]QGTFTSD[4Pal]SQ[αMeL]LD[Orn]K([dE-γGlu-C18 diacid])AQ[αMe4Pal]AFIQ[αMeY]LIA[Aib]GPSSGEPPPSGGGE-NH2 [Example 1130]
0.0441

// EC50 lookup, key: H-Y[Aib]QGTFTSDFS[Dap][αMeL]LDKK([AEEA-γGlu-C18 diacid])AQ[Aib]AFIEYLIE[Aib]GPSSGAPPPSGS-NH2 [Example 800]
0.283

// EC50 lookup, key: H-Y[Aib]QGTFTSD[4Pal]S[Orn][αMeL]LDKK([AEEA-γGlu-C18 diacid])AQ[αMe4Pal]AFIEYLIE[Aib]GESSGAPPPSGE-NH2 [Example 222]
0.228

// EC50 lookup, key: H-Y[Aib]QGTFTSDFSK[αMeL]LDKK([AEEA-γGlu-C20 diacid])AQ[Aib]AFIEWLLEGGPSSGAPPPSEG-NH2 [Example 37]
0.207

// EC50 lookup, key: H-Y[Aib]QGTFTSDFS[Orn][αMeL]LDKK([AEEA-γGlu-C18 diacid])AQ[Aib]AFIEYLIE[Aib]GESSGAPPPSGE-NH2 [Example 219]
0.119

// EC50 lookup, key: H-Y[Aib]QGTFTSD[4Pal]S[Orn][αMeL]LDKK([AEEA-AEEA-γGlu-C18 diacid])AQ[αMe4Pal]AFIEYLIE[Aib]GPSSGAPPPSGS-NH2 [Example 814]
0.337

// EC50 lookup, key: H-Y[Aib]QGTFTSDFS[Orn][αMeL]LDKK([AEEA-γGlu-C18 diacid])AQ[αMe4Pal]AFIEYLIE[Aib]GPSSGAPPPSGS-NH2 [Example 811]
0.14

// EC50 lookup, key: H-Y[Aib]QGT[αMeF]TSD[4Pal][αMeS]I[αMeL]LD[Orn]K([AEEA-γGlu-C18 diacid])AQ[αMe4Pal]EFI[dE][αMeY]LIEGGPSSGAPPPSGE-NH2 [Example 1164]
0.0104

// EC50 lookup, key: Y[Aib]QGTFTSD[4Pal]SQ[αMeL]LD[Orn]K([γGlu-γGlu-C18 diacid])AQ[αMe4Pal]AFIEYLIE[Aib]GPSSGAPPPSGS-NH2 [Example 935]
0.123

// EC50 lookup, key: H-Y[Aib]QGTFTSDFS[Orn][αMeL]LDKK([AEEA-γGlu-C18 diacid])AQ[Aib]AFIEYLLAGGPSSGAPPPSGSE-NH2 [Example 90]
0.173

// EC50 lookup, key: H-Y[Aib]QGTFTSD[Phe(4-CN)]S[Orn][αMeL]LDKK([AEEA-AEEA-γGlu-C18 diacid])AQ[Aib]AFIEYLLE[Aib]GPSSGAPPPSGS-NH2 [Example 178]
0.34
